Target: G protein-coupled receptor 119 (GPR-119) (Mesocricetus auratus, UniProt A0A1U8CD06)
Construct: hamster-derived β-cells containing G protein-coupled receptor 119 (GPR-119), HIT-T15 cells; host or cells: HIT-T15 (hamster pancreatic β-cells)
Sequence (A0A1U8CD06 1-334): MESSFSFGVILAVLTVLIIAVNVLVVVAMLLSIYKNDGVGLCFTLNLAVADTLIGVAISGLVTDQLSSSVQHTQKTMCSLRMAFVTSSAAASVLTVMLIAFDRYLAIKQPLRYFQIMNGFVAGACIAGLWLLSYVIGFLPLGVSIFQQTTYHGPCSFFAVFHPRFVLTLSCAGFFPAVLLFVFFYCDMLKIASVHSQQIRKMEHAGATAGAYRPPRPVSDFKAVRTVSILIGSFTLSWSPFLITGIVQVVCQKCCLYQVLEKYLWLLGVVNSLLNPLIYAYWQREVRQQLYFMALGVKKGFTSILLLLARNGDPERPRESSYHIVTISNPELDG
Assay: cAMP activity in HIT-T15 cells (cAMP dynamic kit, FRET)
Format: cell-based, hamster
Details: 1 hour at 37° C., six concentrations 0.0032 to 10 μM, read-out: EC50
Give pEC50 for every item shown.
One number for each entry, as −log10 of the molar value.

CC(C)c1noc(N2CCC(COc3ccc(C4=CCC(C(=O)N5CCC(N6CCCC6)CC5)CC4)cc3F)CC2)n1 (stereo not shown) | 6.74
CC(C)c1noc(N2CCC(COc3ccc(C4=CCC(C(=O)N5CC(=NO)C5)CC4)cn3)CC2)n1 (stereo not shown) | 6.80
CCc1cnc(N2CCC(COc3ccc(C4=CCC(C(=O)N5CC[C@H](F)C5)CC4)cc3)CC2)nc1 (single isomer, unassigned; (-)) | 7.92
CCc1cnc(N2CCC(COc3ccc(C4=CCC(C(=O)N5CCCC5)CC4)cc3C(F)(F)F)CC2)nc1 (stereo not shown) | 6.82
CCc1cnc(N2CCC(COc3ccc(C4=CCC(C(=O)N(CC)CCO)CC4)cc3F)CC2)nc1 (stereo not shown) | 8.06
CCc1cnc(N2CCC(COc3ccc(C4=CCC(C(=O)N5CCSCC5)CC4)cc3C)CC2)nc1 (stereo not shown) | 7.46

# ---- query compound ----
Problem: Any idea what pEC50 was measured for CC(C)(C)OC(=O)N1CCC(COc2ccc(C3=CCC(C(=O)N4CCC(O)CC4)CC3)nc2)CC1 (stereo not shown) ?
Solution: 7.48

---

Target: G protein-coupled receptor 119 (GPR-119) (Mesocricetus auratus, UniProt A0A1U8CD06)
Construct: hamster-derived β-cells containing G protein-coupled receptor 119 (GPR-119), HIT-T15 cells; host or cells: HIT-T15 (hamster pancreatic β-cells)
Sequence (A0A1U8CD06 1-334): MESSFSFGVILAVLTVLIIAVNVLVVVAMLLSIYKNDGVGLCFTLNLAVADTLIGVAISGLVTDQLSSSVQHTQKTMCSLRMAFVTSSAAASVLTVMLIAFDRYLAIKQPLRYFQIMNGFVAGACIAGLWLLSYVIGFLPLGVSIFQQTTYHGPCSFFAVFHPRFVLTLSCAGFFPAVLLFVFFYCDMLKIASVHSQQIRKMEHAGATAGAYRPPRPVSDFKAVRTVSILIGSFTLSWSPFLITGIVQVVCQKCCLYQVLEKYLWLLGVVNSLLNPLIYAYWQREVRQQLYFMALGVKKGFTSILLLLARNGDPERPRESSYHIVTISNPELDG
Test: cAMP activity in HIT-T15 cells (cAMP dynamic kit, FRET)
Assay type: cell-based, hamster
Details: Table 2, read-out: EC50 value
readout_type: EC50

# count of solved cases: 5
CCc1cnc(N2CCC(COc3ccc(C4=CCC(C(=O)NCC(C)(C)CO)CC4)cc3)CC2)nc1 (stereo not drawn) | ≤ 50 nM
CC(C)c1noc(N2CCC(COc3ccc(C4=CCC(C(=O)N5CCSCC5)CC4)cn3)CC2)n1 (stereo not drawn) | ≤ 50 nM
CC(C)(C)OC(=O)N1CCC(COc2ccc(C3=CCC(C(=O)N4CCC(C#N)CC4)CC3)nc2)CC1 (stereo not drawn) | ≤ 50 nM
CCc1cnc(N2CCC(COc3ccc(C4=CCC(C(=O)N5CCC(F)(F)C5)CC4)cc3F)CC2)nc1 (stereo not drawn) | ≤ 50 nM
CCC(F)(F)C(=O)N1CCC(COc2ccc(C3=CCC(C(=O)N4CCCC4)CC3)cc2F)CC1 (stereo not drawn) | ≤ 50 nM

Provide reported EC50 for each item, in the same order as listed.
1. CCc1cnc(N2CCC(COc3ccc(C4=CCC(C(=O)N5CCC(C#N)CC5)CC4)c(F)c3)CC2)nc1 (stereo not drawn)
2. CC(C)c1noc(N2CCC(COc3ccc(C4=CCC(C(=O)N5CCC5)CC4)cc3F)CC2)n1 (stereo not drawn)
3. CC(C)c1noc(N2CCC(COc3ccc(C4=CCC(C(=O)N5CCC(CCO)CC5)CC4)cc3F)CC2)n1 (stereo not drawn)

Solution:
1. ≤ 50 nM
2. ≤ 50 nM
3. ≤ 50 nM
